These measurements were taken from ChEMBL document CHEMBL3813616.

Assay text: Solubility of the compound
Assay type: physicochemical
Endpoint label: solubility (µg/mL)
Give the value in µg/mL but do not write µg/mL after it.

For the molecule NCCCc1cc(-c2c[nH]c3ncccc23)nc(N)n1 , what solubility is on record?
12

====

Tested on: Serine/threonine-protein kinase pim-1 (Homo sapiens) (UniProt P11309)
Assay text: Inhibition of human PIM1 (2 to 313 residues) assessed as enzyme activity at 1 uM using 33P ATP by radioactive filter binding assay
Set-up: scale not given: the % may be the effect or the level left
Endpoint label: Activity (%)
Give the value in % but do not write % after it.

Please review the following examples before continuing.
{"Smiles repr": "CCc1cc(-c2c[nH]c3ncc(-c4cnn(C5CCNCC5)c4)cc23)nc(N)n1", "Measurement units": "%", "Activity": -85}
{"Smiles repr": "CCCCc1cc(-c2c[nH]c3ncc(-c4cnn(C5CCNCC5)c4)cc23)nc(N)n1", "Measurement units": "%", "Activity": -98}
{"Smiles repr": "CCCCc1cc(-c2c[nH]c3ncccc23)nc(N)n1", "Measurement units": "%", "Activity": -61}

Field: next compound
For the compound Nc1nccc(-c2c[nH]c3ncccc23)n1 , what Activity is on record?
-62

====

Tested on: AMP-activated protein kinase, AMPK (Homo sapiens) (UniProt P54646+O43741+P54619+Q9UGJ0+Q9Y478+Q13131+Q9UGI9)
Assay text: Inhibition of human AMPK assessed as enzyme activity at 1 uM using 33P ATP by radioactive filter binding assay
Assay type: protein-complex assay
Set-up: scale not given: the % may be the effect or the level left
Reported Activity values are given for each entry in this list.
Give the value in % but do not write % after it.

{"Compound": "CCCCc1cc(-c2c[nH]c3ncc(-c4cnn(C5CCNCC5)c4)cc23)nc(N)n1", "Measurement units": "%", "Activity": -69}
{"Compound": "Nc1nccc(-c2c[nH]c3ncccc23)n1 [MERIOLIN 1]", "Measurement units": "%", "Activity": -11}
{"Compound": "CCc1cc(-c2c[nH]c3ncc(-c4cnn(C5CCNCC5)c4)cc23)nc(N)n1", "Measurement units": "%", "Activity": -54}

For the compound CCCCc1cc(-c2c[nH]c3ncccc23)nc(N)n1 , what Activity is on record?
-6

====

Tested on: UniProtKB P17252
Assay text: Inhibition of human PKCalpha (1 to 672 residues) assessed as enzyme activity at 1 uM using 33P ATP by radioactive filter binding assay
Design: scale not given: the % may be the effect or the level left
Reported Activity values are given for each entry in this list.
Give the value in % but do not write % after it.

Please review the following examples before continuing.
{"Smiles repr": "CCc1cc(-c2c[nH]c3ncc(-c4cnn(C5CCNCC5)c4)cc23)nc(N)n1", "Endpoint label": "Activity", "Measurement units": "%", "Measured": -73}
{"Smiles repr": "Nc1nccc(-c2c[nH]c3ncccc23)n1", "Endpoint label": "Activity", "Measurement units": "%", "Measured": -28}
{"Smiles repr": "CCCCc1cc(-c2c[nH]c3ncccc23)nc(N)n1", "Endpoint label": "Activity", "Measurement units": "%", "Measured": -18}

Field: next compound
For the compound CCCCc1cc(-c2c[nH]c3ncc(-c4cnn(C5CCNCC5)c4)cc23)nc(N)n1 , what Activity is on record?
-55

====

Tested on: Serine/threonine-protein kinase pim-2 (Homo sapiens)
Assay text: Inhibition of human PIM2 (2 to 334 residues) assessed as enzyme activity at 1 uM using 33P ATP by radioactive filter binding assay
Parameters: scale not given: the % may be the effect or the level left
Reported Activity values are given for each entry in this list.

Please review the following examples before continuing.
{"Smiles repr": "CCCCc1cc(-c2c[nH]c3ncccc23)nc(N)n1", "Activity": "-25%"}
{"Smiles repr": "CCCCc1cc(-c2c[nH]c3ncc(-c4cnn(C5CCNCC5)c4)cc23)nc(N)n1", "Activity": "-98%"}
{"Smiles repr": "CCc1cc(-c2c[nH]c3ncc(-c4cnn(C5CCNCC5)c4)cc23)nc(N)n1", "Activity": "-87%"}

Field: next molecule
For the molecule Nc1nccc(-c2c[nH]c3ncccc23)n1 , what Activity is on record?
-39%

====

Tested on: 3-phosphoinositide-dependent protein kinase 1 (Homo sapiens)
Assay text: Inhibition of human His6-tagged PDK1 using biotinylated PDKtide as substrate after 60 mins by topcount method
Endpoint label: log10 IC50 (log10 of the value in µM)
Note the log scale: values are log10 of IC50 expressed in µM.

Please review the following examples before continuing.
{"Smiles repr": "CCc1cc(-c2c[nH]c3ncc(-c4cnn(CCN(C)C)c4)cc23)nc(N)n1", "Endpoint label": "log10 IC50", "Measured": -1.09}
{"Smiles repr": "CCc1cc(-c2c[nH]c3ncc(-c4ccco4)cc23)nc(N)n1", "Endpoint label": "log10 IC50", "Measured": -0.92}
{"Smiles repr": "COc1ccc2[nH]c(-c3cc[nH]n3)nc2c1", "Endpoint label": "log10 IC50", "Measured": 1.97}
{"Smiles repr": "Nc1nccc(-c2c[nH]c3ccc(Br)cc23)n1", "Endpoint label": "log10 IC50", "Measured": 1.08}
{"Smiles repr": "CCc1cc(-c2c[nH]c3ncc(-c4cnn(C5CCNCC5)c4)cc23)nc(N)n1", "Endpoint label": "log10 IC50", "Measured": -1.24}
{"Smiles repr": "CCc1cc(-c2c[nH]c3ncc(-c4cnn(C)c4)cc23)nc(N)n1", "Endpoint label": "log10 IC50", "Measured": -1.07}

For the molecule CCc1cc(-c2c[nH]c3ncc(-c4ccccc4)cc23)nc(N)n1 , what log10 IC50 is on record?
0.54

For the molecule CCc1cc(-c2c[nH]c3ncc(-c4ccc(N)nc4)cc23)nc(N)n1 , what log10 IC50 is on record?
-0.77

For the molecule CCCCc1cc(-c2c[nH]c3ncccc23)nc(N)n1 , what log10 IC50 is on record?
0.04

For the molecule CCCCc1cc(-c2c[nH]c3ncc(-c4cnn(C5CCNCC5)c4)cc23)nc(N)n1 , what log10 IC50 is on record?
-1.08

For the molecule NCCCc1cc(-c2c[nH]c3ncccc23)nc(N)n1 , what log10 IC50 is on record?
-0.41

For the molecule CCc1cc(-c2c[nH]c3ncccc23)nc(N)n1 , what log10 IC50 is on record?
0.08

For the molecule CCc1cc(-c2c[nH]c3ncc(-c4cccnc4)cc23)nc(N)n1 , what log10 IC50 is on record?
-0.30

For the molecule CCCCCc1cc(-c2c[nH]c3ncccc23)nc(N)n1 , what log10 IC50 is on record?
0.34

For the molecule CCc1cc(-c2c[nH]c3ncc(-c4ccnn4C)cc23)nc(N)n1 , what log10 IC50 is on record?
0.38

For the molecule CCc1cc(-c2c[nH]c3ncc(-c4ccn[nH]4)cc23)nc(N)n1 , what log10 IC50 is on record?
-0.59

For the molecule CCc1cc(-c2c[nH]c3ncc(-c4cnn(CC(C)C)c4)cc23)nc(N)n1 , what log10 IC50 is on record?
-0.96

====

Reported Activity values are given for each entry in this list.
Tested on: Casein kinase II (Homo sapiens) (UniProt P67870+P68400+P19784)
Assay text: Inhibition of human CK2 assessed as enzyme activity at 1 uM using 33P ATP by radioactive filter binding assay
Type: protein-complex assay
Set-up: scale not given: the % may be the effect or the level left
Give the value in % but do not write % after it.

{"Smiles repr": "CCc1cc(-c2c[nH]c3ncc(-c4cnn(C5CCNCC5)c4)cc23)nc(N)n1", "Activity, %": -10}
{"Smiles repr": "Nc1nccc(-c2c[nH]c3ncccc23)n1", "Activity, %": -22}
{"Smiles repr": "CCCCc1cc(-c2c[nH]c3ncc(-c4cnn(C5CCNCC5)c4)cc23)nc(N)n1", "Activity, %": 0}

Field: next molecule
For the molecule CCCCc1cc(-c2c[nH]c3ncccc23)nc(N)n1 , what Activity is on record?
14

====

Tested on: Serine/threonine-protein kinase BRSK2 (Homo sapiens)
Assay text: Inhibition of human BRSK2 (2 to 674 residues) assessed as enzyme activity at 1 uM using 33P ATP by radioactive filter binding assay
Set-up: scale not given: the % may be the effect or the level left
Reported Activity values are given for each entry in this list.
Give the value in % but do not write % after it.

{"Smiles repr": "CCCCc1cc(-c2c[nH]c3ncccc23)nc(N)n1", "Endpoint label": "Activity", "Measured": -12}
{"Smiles repr": "CCCCc1cc(-c2c[nH]c3ncc(-c4cnn(C5CCNCC5)c4)cc23)nc(N)n1", "Endpoint label": "Activity", "Measured": -65}
{"Smiles repr": "Nc1nccc(-c2c[nH]c3ncccc23)n1", "Endpoint label": "Activity", "Measured": -16}

Lab note: need Activity for CCc1cc(-c2c[nH]c3ncc(-c4cnn(C5CCNCC5)c4)cc23)nc(N)n1 on Serine/threonine-protein kinase BRSK2 (Homo sapiens), anyone have it?
-65
